test system: ncRNAs (SEQ ID NO 28-89); experiment: ncRNA arrays of melanocytes, keratinocytes, normal skin, melanoma cell lines and patient samples; parameters: species or system human; conditions: melanoma patient 10 sample compared to normal skin
# ncRNA array expression, patient 10 per entry

- substance: "SEQ ID NO 69 (AGAGTTCGCACTGGGAAGAGTTAAAAAATAAACATTTACAAGGACGAGGAAAGCGGCCCC; listed as DNA, chemistry not given here; listed as Homo sapiens)"
  targetSystem: "ncRNAs (SEQ ID NO 28-89)"
  ncRNA array expression, patient 10: "−1.696"
- substance: "SEQ ID NO 40 (GTTAAAGACTAAATTAGTGATTTGGGAGATCAAGCCAATGGGCTTGTCTAAAACCTAGTC; listed as DNA, chemistry not given here; listed as Homo sapiens)"
  targetSystem: "ncRNAs (SEQ ID NO 28-89)"
  ncRNA array expression, patient 10: 0.3577
- substance: "SEQ ID NO 74 (TATATTACAGGAGTTGTCTATACGATTATAGTACCTGATTCTTTGGACATATCATTGAAC; listed as DNA, chemistry not given here; listed as Homo sapiens)"
  targetSystem: "ncRNAs (SEQ ID NO 28-89)"
  ncRNA array expression, patient 10: 2.172
- substance: "SEQ ID NO 65 (CACCGTTTTACTTTTTGTGGGGAGGGGAAGCAGTATCAAAATTTCTTCGGGCGCCAGAAC; listed as DNA, chemistry not given here; listed as Homo sapiens)"
  targetSystem: "ncRNAs (SEQ ID NO 28-89)"
  ncRNA array expression, patient 10: "−0.3046"
- substance: "SEQ ID NO 78 (ATGGAAAGGCCAGGGGAGGGTGGAGCTCAGGAGTGGAAGCACAGGGACTAAGGCCTGAGC; listed as DNA, chemistry not given here; listed as Homo sapiens)"
  targetSystem: "ncRNAs (SEQ ID NO 28-89)"
  ncRNA array expression, patient 10: "−3.496"
- substance: "SEQ ID NO 75 (CAAGTGGGAAGAAAAAGAGCCCTACGTGGTGACATTCTGGAAGGATATCATGGATGATTG; listed as DNA, chemistry not given here; listed as Homo sapiens)"
  targetSystem: "ncRNAs (SEQ ID NO 28-89)"
  ncRNA array expression, patient 10: 0.6968
- substance: "SEQ ID NO 89 (GGACACAGAGAGTCATGCACCAGCCCAGTGAGAACCAATTCAGAGCCAAATGCCAAACCC; listed as DNA, chemistry not given here; listed as Homo sapiens)"
  targetSystem: "ncRNAs (SEQ ID NO 28-89)"
  ncRNA array expression, patient 10: "−1.643"
- substance: "SEQ ID NO 34 (TTTTCTCTGCTTATTACCCTCCCTGTTTCCTCCTGGGCTGCCAACAACATATTATATTAC; listed as DNA, chemistry not given here; listed as Homo sapiens)"
  targetSystem: "ncRNAs (SEQ ID NO 28-89)"
  ncRNA array expression, patient 10: "−1.787"
- substance: "SEQ ID NO 71 (AAAATTCCAAGAGGGCCTTTTCGAATAGACGCATGAACGGTGTTTGTGTCTGGATCGTCC; listed as DNA, chemistry not given here; listed as Homo sapiens)"
  targetSystem: "ncRNAs (SEQ ID NO 28-89)"
  ncRNA array expression, patient 10: 1.787
- substance: "SEQ ID NO 70 (AGTTATAGAGGAGGCTCAGGAGGATCTGGGGAAACGGGACCAGAGGGTAAGATGGGTTAT; listed as DNA, chemistry not given here; listed as Homo sapiens)"
  targetSystem: "ncRNAs (SEQ ID NO 28-89)"
  ncRNA array expression, patient 10: "−0.6931"

* * *

test system: ncRNAs (SEQ ID NO 28-89); experiment: ncRNA arrays of melanocytes, keratinocytes, normal skin, melanoma cell lines and patient samples; parameters: species or system human; details: melanoma patient 28 sample compared to normal skin
Kindly return met if reported ncRNA array expression, patient 28 is no lower than 0.6; return not met if it is lower.

- substance: "SEQ ID NO 60 (ACTAACAGCACTGGAGGGTGTAGTGTTTCCTACTTTATGGATGAGTGTACTGTGGGCTTC; listed as DNA, chemistry not given here; listed as Homo sapiens)"
  assignedCategory: "met"
- substance: "SEQ ID NO 52 (TTTTCTTAGTCTTTTTACTTTTTCCATTATATTCTTTGATATATTTGAGAAAATGGCTTG; listed as DNA, chemistry not given here; listed as Homo sapiens)"
  assignedCategory: "met"
- substance: "SEQ ID NO 67 (TTCCCTATTCCATCCTTTGATGGGTGGCCTGTTACACGTTTGGAAATAAAAACAAGTGGG; listed as DNA, chemistry not given here; listed as Homo sapiens)"
  assignedCategory: "met"
- substance: "SEQ ID NO 80 (CACACAGCCCAGTCTGCCTGTGATGGTAATATAAATCAAACCAGGGACCCAAGAGCCCAG; listed as DNA, chemistry not given here; listed as Homo sapiens)"
  assignedCategory: "not met"
- substance: "SEQ ID NO 37 (ACGCACTGGGCGTTGAAGCAGTGCTTTCTGGATTAAATACGAAATACTGATGTCACAAGC; DNA, backbone and methylation of C not given here; listed as Homo sapiens)"
  assignedCategory: "met"
- substance: "SEQ ID NO 58 (ATTTATTTGACTCTAAAATGACAATATAACAACTATAAGGAATTGATATGATGTCCTTAC; listed as DNA, chemistry not given here; listed as Homo sapiens)"
  assignedCategory: "not met"
- substance: "SEQ ID NO 53 (ATATATTTAGATAGTACTATGTTTCGTTTTCTTCCGATTTCAGGGATCCTTTTGTCTTAC; listed as DNA, chemistry not given here; listed as Homo sapiens)"
  assignedCategory: "not met"
- substance: "SEQ ID NO 56 (AAAAAATGAGGCAATCTCATCCCGAAACTATTTAAAACTACTCTCCTCTCTCTTGATAAA; listed as DNA, chemistry not given here; listed as Homo sapiens)"
  assignedCategory: "not met"
- substance: "SEQ ID NO 34 (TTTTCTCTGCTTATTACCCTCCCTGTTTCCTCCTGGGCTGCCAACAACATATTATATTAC; listed as DNA, chemistry not given here; listed as Homo sapiens)"
  assignedCategory: "met"
- substance: "SEQ ID NO 88 (CTGTTGCTTATTCTGGGAGCCCAATCCTAGGCTGAGGGAGGTGGGCGCGGGGCTGTTTAA; listed as DNA, chemistry not given here; listed as Homo sapiens)"
  assignedCategory: "not met"
- substance: "SEQ ID NO 41 (CTCGTAACACTGGGAAAACTGCATACAATATTTAGAAGGAACACTAATACAGCAGAATCT; listed as DNA, chemistry not given here; listed as Homo sapiens)"
  assignedCategory: "not met"
- substance: "SEQ ID NO 69 (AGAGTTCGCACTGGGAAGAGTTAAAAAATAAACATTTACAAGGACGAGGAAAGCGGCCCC; listed as DNA, chemistry not given here; listed as Homo sapiens)"
  assignedCategory: "not met"
- substance: "SEQ ID NO 63 (CTCACACGCACCCTTTCACTGTTTCTTAGTAATTTGTTTGTCTACAGACACAGACGGGAA; listed as DNA, chemistry not given here; listed as Homo sapiens)"
  assignedCategory: "not met"
- substance: "SEQ ID NO 46 (CTATTGGAGTGCATATAAATTCTTGATAGCACCAGTTCTCAAATATGAGGTGTTAAAAAC; listed as DNA, chemistry not given here; listed as Homo sapiens)"
  assignedCategory: "met"
- substance: "SEQ ID NO 81 (CTAGGGGCGGAGTTTCTCGTAAGGGGCAAGGCCAAGGCATCTTGTATTGGGGCTGACAGG; listed as DNA, chemistry not given here; listed as Homo sapiens)"
  assignedCategory: "not met"
- substance: "SEQ ID NO 43 (CTTAATCCACATTTGTTTTGAATTTTTCTGATTCCTATAGTACCATACTCTGATGCCTAT; listed as DNA, chemistry not given here; listed as Homo sapiens)"
  assignedCategory: "not met"
- substance: "SEQ ID NO 61 (CATACATTGCCCTCACTAATCAATGGACATTTCAGCATTTCATTACTAATTTTGAGAGAA; listed as DNA, chemistry not given here; listed as Homo sapiens)"
  assignedCategory: "met"
- substance: "SEQ ID NO 84 (TTATTAAAAGGACTGAGGATCATGTGTGTTGGTGTGTCCCGGAGTCTGCTCTAAGGTAAA; listed as DNA, chemistry not given here; listed as Homo sapiens)"
  assignedCategory: "met"

* * *

test system: ncRNAs (SEQ ID NO 28-89); experiment: ncRNA arrays of melanocytes, keratinocytes, normal skin, melanoma cell lines and patient samples; parameters: species or system human; conditions: melanoma patient 9 sample compared to normal skin
# ncRNA array expression, patient 9 per entry

- substance: "SEQ ID NO 87 (GGGATATTTTTAAGGGGAAGGGGAAGGATAGAGAGAAAGTGCAGGCAGGGCTGGGGTCTG; listed as DNA, chemistry not given here; listed as Homo sapiens)"
  targetSystem: "ncRNAs (SEQ ID NO 28-89)"
  ncRNA array expression, patient 9: "−1.536"
- substance: "SEQ ID NO 32 (ATTCAAATCTTCATGAATGGCATCACTTGCTTTAGACCCATTTTTTTTTTATTGGTCAGA; DNA, backbone and methylation of C not given here; listed as Homo sapiens)"
  targetSystem: "ncRNAs (SEQ ID NO 28-89)"
  ncRNA array expression, patient 9: 1.062
- substance: "SEQ ID NO 59 (TGTGCAGCAGTATCAAAGGTCCTTAAATTCTCAACAATGAAGGAAAAACAAAAACCCATT; listed as DNA, chemistry not given here; listed as Homo sapiens)"
  targetSystem: "ncRNAs (SEQ ID NO 28-89)"
  ncRNA array expression, patient 9: "−1.258"

# credit: patent US20110143948A1
